# Measurement target: T1, human PD-L1 protein (soluble) (human, UniProt Q9NZQ7 19-239)
# T1 construct: also called PD-L1 (R&D Systems); His-tagged PD-L1 protein
# T1 sequence (Q9NZQ7 19-239 limits assumed): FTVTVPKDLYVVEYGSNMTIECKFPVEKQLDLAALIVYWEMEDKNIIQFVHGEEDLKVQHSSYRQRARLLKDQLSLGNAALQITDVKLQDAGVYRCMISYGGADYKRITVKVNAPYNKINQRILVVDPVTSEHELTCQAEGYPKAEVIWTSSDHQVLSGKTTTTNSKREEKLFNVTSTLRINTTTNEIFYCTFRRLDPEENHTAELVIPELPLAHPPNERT
# Assay info: SPR, mAb captured on anti-human IgG Fc, PD-L1 as analyte;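 note: array SPR with mAb supernatants captured at several densities, PD-L1 injected for 5 min then 15 min dissociation, non-regenerative kinetic series, double-referenced against interspot surface and blank injection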
Kd listing for selected binders.
Give the value, in units of nM, as a plain number.

See these solved cases before continuing.
binder="antibody A2 (antibody, V domains shown, Tested as full-length mAb made in CHO cells; also called L2H2) VH: EVQLVESGGGLVQPGGSLRLSCAASGFTFSRYDMSWVRQAPGKGLEWVSTISGSGGSTYYADSVKGRFTISRDNSKTTLYLQMISLRAEDTAVYYCAKAGFTMIVVAFDYWGQGTLVTVSS VL: DIQMTQSPSSLSASVGDRVTITCRASQGISNYLAWFQQKPGKAPKSLIYAASSLQSGVPSKFSGSGSGTDFTLTISSLQPEDFATYYCQQYNSYPYTFGQGTKLEIK" units_of_measure=nM recorded_value=3.45
binder="antibody A1 (antibody, V domains shown, Tested as full-length mAb made in CHO cells; also called L1H1) VH: QVQLVQSGAEVKKPGASVKVSCKASGFTFTSYDINWVRQATGQGLEWMGWMHPNSGITGYAQKFQGRVTMTRNTSISTAYMELSSLSSEDTAVYFCARYYYVSGSYDYWGQGTLVTVSS VL: EIVMTQSPATLSLSPGERATLSCWASQSVSSSYLSWYQQKPGQAPRLLIYGASTRATGIPARFSGSGSGTDFTLTISSLQPEDFAVYYCQQDYNLPYTFGQGTKLEIK" units_of_measure=nM recorded_value=0.13

Please look at the following binder next.
For the binder antibody A16 (antibody, V domains shown, Tested as full-length mAb made in CHO cells; also called L16H16) VH: QVQLVESGGGVVQPGRSLRLSCAASGFTFSSYGMHWVRQAPGKGLEWVAVIWYDGSNKYYADSVKGRFTISRDNSNDTLFLQMNSLRAEDTAVYYCARDFDWFGMDVWGQGTTVTVSS VL: DIQMTQSPSSLSASVGDRVTITCRASQGIRNDLGWYQQKPGKAPKRLIYAASSLQSGVPSRFSGSGSGTEFTLTISSLQPEDFATYYCLQHNSYPRTFGQGTKVEIK , give its reported Kd. 250

Cited source: patent US20220056137A1
